Tested on: CAKI-1
Assay: NCI tumour cell line growth inhibition, 48 h
Activity calls are given as the source filed them. No stated cut-off is given here; in the data, active = GI50 up to about 1.1 µM and inactive = higher.
Assign GI50 to each entry below.

Known results for molecules:
>>> print(df.to_string())
                                   molecule        measuredresult
0  C=CCNC(=O)N(CCC)CCCCC(NC(C)=O)C(=O)NCc1ccccc1 (stereo unspecified)   > 100 µM (inactive)
1  CCC[C@@H](O)C[C@@H]1CCC[C@H](C[C@@H](O)CC)N1C   > 100 µM (inactive)
2  CC1CC[C@@H](C(C)C)[C@H](Oc2nnc(C3OC(CO)C(O)C3O)o2)C1 (stereo partly specified)   > 100 µM (inactive)
3            Nc1ccc(-c2nc3ccc(F)cc3s2)cc1Cl  > 78.5 µM (inactive)
4  CC(=O)OC1=CC(n2cc(F)c(=O)[nH]c2=O)OC(C)C1=O (stereo unspecified)  > 52.2 µM (inactive)

With those in mind, consider the next molecule.
Exercise: For Oc1c(Br)cc(/C=C/c2ccnc(/C=C/c3cc(Br)c(O)c(Br)c3)c2)cc1Br , what is its reported GI50?
Key: 35.5 µM (inactive)

---

Assign GI50 to each entry below.
System: SK-MEL-2
Assay: NCI tumour cell line growth inhibition, 48 h
Activity calls are given as the source filed them. No stated cut-off is given here; in the data, active = GI50 up to about 1.1 µM and inactive = higher.

                                   compound       measuredresult
0  CCOC(=O)c1c(C)[n+]([O-])c2cc(Cl)c(Cl)cc2[n+]1[O-]   23.3 µM (inactive)
1                  C(=N/Nc1ccccn1)/c1cccnc1  > 100 µM (inactive)
2      CC(CCC(=O)O)(c1ccc(O)cc1)c1ccc(O)cc1  > 100 µM (inactive)
3  Cc1[nH]c2ncn(/N=C/c3ccccc3O)c(=N)c2c1Cc1ccccc1   23.3 µM (inactive)
4  CSCSCC(CO)NC(=O)/C=C/c1c(C)nc(O)nc1O (configuration not stated)   89.9 µM (inactive)
5           COC(=O)c1sc2ncc3c(c2c1N)CCCCCC3  > 100 µM (inactive)

Parameters: items (list). Returns: GI50 for each item.
1. COc1ccc(/C=C(/C)[N+](=O)[O-])cc1
2. CC(C)(C)NCC(O)c1ccc(O)c(CO)n1 (configuration not stated)
3. CN(C)c1ccc(/C=C2/SC(=S)NC2=O)cc1
4. [N-]=[N+]=Nc1c(Cc2ccccc2)c(=O)oc2ccccc12
5. Cc1cc(S(=O)(=O)/N=C2\NCCN2Cc2ccccc2)c(S)cc1Cl
6. O=C1CCCCC/C1=C\c1cccc(F)c1

Key:
4.95 µM (inactive)
> 100 µM (inactive)
> 100 µM (inactive)
28.1 µM (inactive)
> 100 µM (inactive)
> 100 µM (inactive)

---

System: T47D
Test: NCI tumour cell line growth inhibition, 48 h
Activity calls are given as the source filed them. No stated cut-off is given here; in the data, active = GI50 up to about 1.1 µM and inactive = higher.
Your response should consist of one outcome taken from class 1 = active, class 0 = inactive

In [3]: df
Out[3]:
                          molsmiles  assaytarget  discretelabel
0  Cc1ccc2c(O)cc(-c3ccc(Cl)s3)nc2n1         T47D        class 1
1        Cn1ncc2c(NCc3ccccc3)ncnc21         T47D        class 0

Now consider a different molecule.
Exercise: # lookup: test call for CC(=O)Nc1ccc(-c2nc3ccccc3s2)cc1I
Key: class 0
